# credit: patent US20120094998A1

molecular target: cKIT (Homo sapiens); assay: Off-chip mobility-shift kinase assay (Caliper LABCHIP), C-kit; details: concentration 3.0E−09
Sequence (P10721 26-976): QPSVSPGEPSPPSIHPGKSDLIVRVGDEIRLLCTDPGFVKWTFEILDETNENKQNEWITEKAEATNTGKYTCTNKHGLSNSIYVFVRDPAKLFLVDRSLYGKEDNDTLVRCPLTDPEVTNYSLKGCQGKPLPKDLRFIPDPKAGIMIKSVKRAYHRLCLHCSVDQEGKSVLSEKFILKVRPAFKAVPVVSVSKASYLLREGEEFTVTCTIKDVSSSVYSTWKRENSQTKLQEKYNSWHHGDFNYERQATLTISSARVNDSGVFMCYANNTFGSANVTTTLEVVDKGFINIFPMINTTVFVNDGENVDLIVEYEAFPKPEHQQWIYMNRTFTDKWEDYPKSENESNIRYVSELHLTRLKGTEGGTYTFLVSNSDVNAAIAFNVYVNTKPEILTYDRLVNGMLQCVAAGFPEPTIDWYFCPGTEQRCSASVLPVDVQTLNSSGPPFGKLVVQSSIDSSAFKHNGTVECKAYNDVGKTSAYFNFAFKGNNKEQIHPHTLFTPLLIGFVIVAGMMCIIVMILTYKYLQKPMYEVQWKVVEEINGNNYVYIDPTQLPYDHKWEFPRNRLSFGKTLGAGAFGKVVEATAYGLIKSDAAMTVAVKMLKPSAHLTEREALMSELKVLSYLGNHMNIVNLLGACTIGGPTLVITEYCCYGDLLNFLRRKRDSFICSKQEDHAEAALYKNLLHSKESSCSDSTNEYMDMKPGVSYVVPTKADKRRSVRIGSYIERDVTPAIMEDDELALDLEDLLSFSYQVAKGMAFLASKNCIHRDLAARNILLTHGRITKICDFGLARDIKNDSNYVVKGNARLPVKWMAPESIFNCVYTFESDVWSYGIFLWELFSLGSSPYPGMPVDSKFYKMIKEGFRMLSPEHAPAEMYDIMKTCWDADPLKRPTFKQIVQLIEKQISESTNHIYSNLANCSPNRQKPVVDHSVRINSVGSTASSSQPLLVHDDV
experimentalEndpoint: C-kit AVG % Activity at 3.0E−09 (%)

| smilesString | targetOrTestSystem | unitSymbol | numericValue |
| --- | --- | --- | --- |
| COCCOCCOCCOCCOCCOCCOCCOCCOCCNCc1ccc(C(=O)Nc2ccc(C)c(Nc3nccc(-c4cccnc4)n3)c2)cc1 | cKIT (Homo sapiens) | % | 99 |
| COCCOCCOCCOCCOCCOCCOCCNCc1ccc(C(=O)Nc2ccc(C)c(Nc3nccc(-c4cccnc4)n3)c2)cc1 | cKIT (Homo sapiens) | % | 99 |
| COCCOCCOCCOCCOCCOCCOCCOCCOCCN1CCN(Cc2ccc(C(=O)Nc3ccc(C)c(Nc4nccc(-c5cccnc5)n4)c3)cc2)CC1 | cKIT (Homo sapiens) | % | 95 |
| COCCOCCOCCOCCOCCOCCOCCN1CCN(Cc2ccc(C(=O)Nc3ccc(C)c(Nc4nccc(-c5cccnc5)n4)c3)cc2)CC1 | cKIT (Homo sapiens) | % | 95 |
| COCCOCCOCCOCCOCCNCc1ccc(C(=O)Nc2ccc(C)c(Nc3nccc(-c4cccnc4)n3)c2)cc1 | cKIT (Homo sapiens) | % | 96 |
